- Experiment Description: physchem
- Format: physicochemical
- Condition Description: 20 °C, water
- Protocol: Compound A is 2-ethoxy-1-{[2′-(5-oxo-4,5-dihydro-1,2,4-oxadiazol-3-yl)biphenyl-4-yl]methyl}-1H-benzimidazole-7-carboxylic acid (melting point: 191° C., solubility in water at 20° C. of about 0.006 g/L). In the following Examples and Reference Examples, the Japanese Pharmacopoeia 14th Edition or Japanese Pharmaceutical Excipients 2003 compatible products were used as the preparation additives. […]
Readout Name: solubility

Inquiry: Please give the measured solubility for this compound: `CCOc1nc2cccc(C(=O)O)c2n1Cc1ccc(-c2ccccc2-c2noc(=O)[nH]2)cc1`
Reply text: ~6 µg/mL
